test: in vivo; conditions: New Zealand White, rabbit, in vivo, topical or ocular
measurement name: Cmax
Provide the measurement as a number trailed by its unit.

input: Endpoint output: Cmax of "CCCCC1=NC2(CCCC2)C(=O)N1Cc1ccc(-c2ccccc2-c2nnn[nH]2)cc1" . Value?
output: 5.64 ng/mL

----------
experiment: in vivo; conditions: New Zealand White, rabbit, in vivo, Plasma concentration at 6 h, single value defined as outlier
measurement name: concentration at 6 h (ng/mL)
Give bare numbers, in ng/mL.

input: Endpoint output: concentration at 6 h of CCCCC1=NC2(CCCC2)C(=O)N1Cc1ccc(-c2ccccc2-c2nnn[nH]2)cc1 [irbesartan] . Value?
output: 65.2

----------
assay: in vivo; conditions: New Zealand White, rabbit, in vivo, topical or ocular, Cmax CE, retinal tissue (RT)
measurement name: Cmax

input: Endpoint output: Cmax of CCCCC1=NC2(CCCC2)C(=O)N1Cc1ccc(-c2ccccc2-c2nnn[nH]2)cc1 [irbesartan] . Value?
output: 23 ng/g

----------
test: Blood-plasma PK after topical eye drop administration; conditions: New Zealand White, rabbit, plasma, topical or ocular, 35 µL
measurement name: Cmax (ng/mL)
Give bare numbers, in ng/mL.

input: Endpoint output: Cmax of CCOc1nc2cccc(C(=O)O)c2n1Cc1ccc(-c2ccccc2-c2nnn[nH]2)cc1 [candesartan] . Value?
output: 4.32

----------
test: Multiple-dose ocular bio-distribution (twice daily for 5 days, tissues 1 h after last dose); settings: New Zealand White, rabbit, vitreous humor, treated study eye, topical, 35 µL, Cmean vitreous humor (VH), SE, multiple doses, 1 h after last dose, study eye
measurement name: concentration at 1 h after last dose

input: Endpoint output: concentration at 1 h after last dose of "CCOc1nc2cccc(C(=O)O)c2n1Cc1ccc(-c2ccccc2-c2nnn[nH]2)cc1" . Value?
output: < 2 ng/g

----------
assay: in vivo; conditions: New Zealand White, rabbit, in vivo, topical or ocular, Tmax SE, vitreous humor (VH)
measurement name: Tmax (min)
Numbers only, in min.

input: Endpoint output: Tmax of "CCCCC1=NC2(CCCC2)C(=O)N1Cc1ccc(-c2ccccc2-c2nnn[nH]2)cc1" . Value?
output: 30

----------
test: Single-dose ocular bio-distribution and pharmacokinetics of topical γCD based eye drops (LC-MS/MS of ocular tissues); settings: New Zealand White, rabbit, retinal/choroidal tissue, treated study eye, topical or ocular, 35 µL, Cmax SE, retinal(choroidal) tissue (RT), single dose 35 μL topical, mean ± SD
measurement name: Cmax (ng/g)
Give bare numbers, in ng/g.

input: Endpoint output: Cmax of CCOc1nc2cccc(C(=O)O)c2n1Cc1ccc(-c2ccccc2-c2nnn[nH]2)cc1 [candesartan] . Value?
output: 63

----------
test: in vivo; settings: New Zealand White, rabbit, in vivo, topical or ocular, Tmax SE, retinal tissue (RT)
measurement name: Tmax

input: Endpoint output: Tmax of "CCCCC1=NC2(CCCC2)C(=O)N1Cc1ccc(-c2ccccc2-c2nnn[nH]2)cc1" . Value?
output: ≤ 30 min

----------
experiment: in vivo; settings: New Zealand White, rabbit, in vivo, topical or ocular, Cmax CE, aqueous humor (AH)
measurement name: Cmax

input: Endpoint output: Cmax of "CCCCC1=NC2(CCCC2)C(=O)N1Cc1ccc(-c2ccccc2-c2nnn[nH]2)cc1" . Value?
output: < 5 ng/g

----------
assay: Single-dose ocular bio-distribution and pharmacokinetics of topical γCD based eye drops (LC-MS/MS of ocular tissues); settings: New Zealand White, rabbit, retinal tissue, topical or ocular, 35 µL, Retinal tissue single dose Cmax in molar units, single dose; assuming molar weight 428.54 g/mol irbesartan, 440.45 g/mol candesartan
measurement name: Cmax

input: Endpoint output: Cmax of "CCOc1nc2cccc(C(=O)O)c2n1Cc1ccc(-c2ccccc2-c2nnn[nH]2)cc1" . Value?
output: 144 nM

----------
test: in vivo; conditions: New Zealand White, rabbit, in vivo, topical or ocular, Tmax SE, aqueous humor (AH)
measurement name: Tmax (h)
One number for each entry, in h.

input: Endpoint output: Tmax of CCCCC1=NC2(CCCC2)C(=O)N1Cc1ccc(-c2ccccc2-c2nnn[nH]2)cc1 [irbesartan] . Value?
output: 3

----------
Assay: Single-dose ocular bio-distribution and pharmacokinetics of topical γCD based eye drops (LC-MS/MS of ocular tissues)
Details: New Zealand White, rabbit, retinal/choroidal tissue, untreated control eye, topical or ocular, 35 µL, Tmax CE, retinal tissue (RT), single dose, control eye
Procedure: A total number of 59 rabbits were included in this part of the study. All rabbits were consecutively assigned to one of the two study groups. […] Group 2 animals were dosed with 0.15% candesartan eye drops, while 23 rabbits received a single dose and 5 rabbits received multiple doses of the eye drops. […] Both, the eye-tissue and plasma samples were shipped to Nucro-Technics (Nucro-Technics, 2000 Ellesmere Road, Unit #16, Scarborough, ON, Canada) for quantitative analysis. […]
measurement name: Tmax (min)
Give bare numbers, in min.

input: Endpoint output: Tmax of "CCOc1nc2cccc(C(=O)O)c2n1Cc1ccc(-c2ccccc2-c2nnn[nH]2)cc1" . Value?
output: 30

----------
assay: in vivo; conditions: New Zealand White, rabbit, in vivo
measurement name: concentration at 0.5 h (ng/g)
Give bare numbers, in ng/g.

input: Endpoint output: concentration at 0.5 h of CCCCC1=NC2(CCCC2)C(=O)N1Cc1ccc(-c2ccccc2-c2nnn[nH]2)cc1 [irbesartan] . Value?
output: 14

----------
Assay: in vivo
Conditions: New Zealand White, rabbit, in vivo
Method: A total number of 59 rabbits were included in this part of the study. All rabbits were consecutively assigned to one of the two study groups. […] Group 2 animals were dosed with 0.15% candesartan eye drops, while 23 rabbits received a single dose and 5 rabbits received multiple doses of the eye drops. […] Both, the eye-tissue and plasma samples were shipped to Nucro-Technics (Nucro-Technics, 2000 Ellesmere Road, Unit #16, Scarborough, ON, Canada) for quantitative analysis. […]
measurement name: half-life (h)
Give bare numbers, in h.

input: Endpoint output: half-life of "CCCCC1=NC2(CCCC2)C(=O)N1Cc1ccc(-c2ccccc2-c2nnn[nH]2)cc1" . Value?
output: 3.32

----------
assay: Single-dose ocular bio-distribution and pharmacokinetics of topical γCD based eye drops (LC-MS/MS of ocular tissues); conditions: New Zealand White, rabbit, corneal tissue, untreated control eye, topical or ocular, 35 µL, Cmax CE, corneal tissue (CT), single dose, control eye, mean ± SD; also published separately [20]
measurement name: Cmax (ng/g)
Give bare numbers, in ng/g.

input: Endpoint output: Cmax of CCOc1nc2cccc(C(=O)O)c2n1Cc1ccc(-c2ccccc2-c2nnn[nH]2)cc1 [candesartan] . Value?
output: 2

----------
experiment: Multiple-dose ocular bio-distribution (twice daily for 5 days, tissues 1 h after last dose); conditions: New Zealand White, rabbit, retinal tissue, topical, 35 µL, Retinal tissue Cmean in molar units, multiple dose; assuming molar weight 428.54 g/mol irbesartan, 440.45 g/mol candesartan
measurement name: concentration at 1 h after last dose
Provide the measurement as a number trailed by its unit.

input: Endpoint output: concentration at 1 h after last dose of "CCOc1nc2cccc(C(=O)O)c2n1Cc1ccc(-c2ccccc2-c2nnn[nH]2)cc1" . Value?
output: 82 nM

----------
assay: Single-dose ocular bio-distribution and pharmacokinetics of topical γCD based eye drops (LC-MS/MS of ocular tissues); conditions: New Zealand White, rabbit, retinal/choroidal tissue, treated study eye, topical or ocular, 35 µL, Tmax SE, retinal tissue (RT), single dose, study eye
measurement name: Tmax

input: Endpoint output: Tmax of "CCOc1nc2cccc(C(=O)O)c2n1Cc1ccc(-c2ccccc2-c2nnn[nH]2)cc1" . Value?
output: ≤ 30 min

----------
assay: in vivo; conditions: New Zealand White, rabbit, in vivo, topical or ocular, Cmax SE, vitreous humor (VH)
measurement name: Cmax (ng/g)
One number for each entry, in ng/g.

input: Endpoint output: Cmax of CCCCC1=NC2(CCCC2)C(=O)N1Cc1ccc(-c2ccccc2-c2nnn[nH]2)cc1 [irbesartan] . Value?
output: 14

----------
experiment: Single-dose ocular bio-distribution and pharmacokinetics of topical γCD based eye drops (LC-MS/MS of ocular tissues); conditions: New Zealand White, rabbit, aqueous humor, treated study eye, topical or ocular, 35 µL, Cmax SE, aqueous humor (AH), single dose, study eye, mean ± SD; also published separately [20]
measurement name: Cmax (ng/g)
One number for each entry, in ng/g.

input: Endpoint output: Cmax of "CCOc1nc2cccc(C(=O)O)c2n1Cc1ccc(-c2ccccc2-c2nnn[nH]2)cc1" . Value?
output: 30

----------
assay: Single-dose ocular bio-distribution and pharmacokinetics of topical γCD based eye drops (LC-MS/MS of ocular tissues); details: New Zealand White, rabbit, vitreous humor, treated study eye, topical or ocular, 35 µL, Cmax SE, vitreous humor (VH), single dose, study eye, mean ± SD
measurement name: Cmax

input: Endpoint output: Cmax of CCOc1nc2cccc(C(=O)O)c2n1Cc1ccc(-c2ccccc2-c2nnn[nH]2)cc1 [candesartan] . Value?
output: < 2 ng/g

----------
assay: in vivo; details: New Zealand White, rabbit, in vivo, topical or ocular, Cmax CE, corneal tissue (CT)
measurement name: Cmax (ng/g)
One number for each entry, in ng/g.

input: Endpoint output: Cmax of "CCCCC1=NC2(CCCC2)C(=O)N1Cc1ccc(-c2ccccc2-c2nnn[nH]2)cc1" . Value?
output: 49
